# measured.target: human PPARα (Homo sapiens, UniProt Q07869)
# Sequence (Q07869 239-466 limits assumed): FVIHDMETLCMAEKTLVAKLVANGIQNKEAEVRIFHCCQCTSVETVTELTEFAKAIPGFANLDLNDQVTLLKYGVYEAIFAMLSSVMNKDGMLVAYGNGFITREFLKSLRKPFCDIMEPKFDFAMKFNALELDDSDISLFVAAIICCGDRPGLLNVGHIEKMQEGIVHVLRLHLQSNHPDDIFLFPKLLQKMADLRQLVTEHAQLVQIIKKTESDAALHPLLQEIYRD
# protocol.details: cell-based
value.kind: EC50 (nM)
Provide the reading as a plain figure in nM.

Query block: Give its EC50 value. Item: O=C1NC(=O)C(Cc2ccc3cc(OCc4ccccc4F)ccc3c2)S1 (stereo not shown)
Result block: 1000

* * *

# measured.target: human PPARδ (Homo sapiens, UniProt Q03181)
# Sequence (Q03181 211-439 limits assumed): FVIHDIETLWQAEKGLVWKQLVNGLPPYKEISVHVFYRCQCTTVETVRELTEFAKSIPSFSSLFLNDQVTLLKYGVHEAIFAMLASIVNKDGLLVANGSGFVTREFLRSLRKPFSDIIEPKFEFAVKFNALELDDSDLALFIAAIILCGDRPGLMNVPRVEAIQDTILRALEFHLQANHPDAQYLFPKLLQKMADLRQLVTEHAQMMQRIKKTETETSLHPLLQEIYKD
# protocol.details: PPARδ transcription activation, Gal4-hPPARδ (LBD)/Gal4-Luc reporter in 293 T cells
# condition: Gal4-hPPARδ (LBD) luciferase reporter, 32 hours exposure, 0.03 to 30 μM, read-out: EC50 values of PPARs transcription activation effect, PPARδ
value.kind: pEC50
Just the number, please; pEC50 means minus log10 of the concentration in mol/L.

Query block: Give its pEC50 value. Item: O=C1NC(=O)C(Cc2ccc3cc(OCc4ccccc4F)ccc3c2)S1 (stereo not shown)
Result block: 5.92

* * *

# measured.target: human PPARγ (Homo sapiens, UniProt P37231)
# Sequence (P37231 238-503 limits assumed): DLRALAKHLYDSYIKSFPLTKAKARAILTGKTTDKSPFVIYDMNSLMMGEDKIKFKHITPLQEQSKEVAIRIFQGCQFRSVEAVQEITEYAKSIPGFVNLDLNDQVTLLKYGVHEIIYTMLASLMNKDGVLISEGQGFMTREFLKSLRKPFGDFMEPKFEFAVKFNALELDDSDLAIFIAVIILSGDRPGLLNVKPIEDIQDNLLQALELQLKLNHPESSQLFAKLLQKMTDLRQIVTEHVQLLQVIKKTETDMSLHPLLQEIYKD
# protocol.details: PPARγ transcription activation, Gal4-hPPARγ (LBD)/Gal4-Luc reporter in 293 T cells
# condition: Gal4-hPPARγ (LBD) luciferase reporter, 32 hours exposure, 0.03 to 30 μM, read-out: EC50 values of PPARs transcription activation effect, PPARγ
value.kind: EC50 (µM)
Provide the reading as a plain figure in µM.

Query block: Under human PPARγ (Homo sapiens, UniProt P37231): EC50 value of O=C1NC(=O)C(Cc2ccc3cc(OCc4ccccc4F)ccc3c2)S1 (stereo not shown) ?
Result block: 6.2
